target: Serine/threonine-protein kinase Chk2 (Homo sapiens); conditions: at 10 µM
The label depends only on residual activity: True if it is at least 50%, False if it is smaller.

Answered cases to consult:
{"smilesRecord": "COc1ccc2c(c1)c(C1=C(c3c[nH]c4ccccc34)C(=O)NC1=O)cn2CCCN(C)C", "discreteLabel": "False"}
{"smilesRecord": "CCOC(=O)c1c(C)[nH]c(/C=C2\\C(=O)Nc3ccccc32)c1C", "discreteLabel": "False"}
{"smilesRecord": "O=C(O)/C=C/c1cc(Br)c(Br)c(Br)c1Br", "discreteLabel": "False"}
{"smilesRecord": "O=C(c1cc2cc(O)ccc2[nH]1)c1cc2cc(O)ccc2[nH]1", "discreteLabel": "False"}
{"smilesRecord": "O=c1cc(N2CCNCC2)oc2c(-c3ccccc3)cccc12", "discreteLabel": "True"}

Kindly determine if residual activity recorded for COc1ccc(CNC(=O)Nc2ncc([N+](=O)[O-])s2)cc1 is above or exactly 50%.
True

Kindly determine if residual activity recorded for Nc1nc(Nc2ccc(S(N)(=O)=O)cc2)nn1C(=O)c1c(F)cccc1F is above or exactly 50%.
False

Kindly determine if residual activity recorded for O=C(CCCc1ccc(-c2ccccc2F)cc1)Nc1ccc(O)cc1 is above or exactly 50%.
True

Kindly determine if residual activity recorded for CC(C)N(CCC(=O)c1ccc2ccccc2c1)Cc1ccccc1 is above or exactly 50%.
True

Kindly determine if residual activity recorded for O=S(=O)(NCCNC/C=C/c1ccc(Br)cc1)c1cccc2cnccc12 is above or exactly 50%.
False

Kindly determine if residual activity recorded for CC(C)(C)n1nc(Cc2cccc3ccccc23)c2c(N)ncnc21 is above or exactly 50%.
False

Kindly determine if residual activity recorded for O=C1Nc2ccc(Cl)cc2/C1=C/c1cc(Cl)c(O)c(Cl)c1 is above or exactly 50%.
False

Kindly determine if residual activity recorded for O=C1C(Cl)=C(N2C(=O)CCC2=O)C(=O)c2ccccc21 is above or exactly 50%.
True

Kindly determine if residual activity recorded for Cc1cc(C)c(/C=C2\C(=O)Nc3ccccc32)[nH]1 is above or exactly 50%.
False

Kindly determine if residual activity recorded for COc1cc2c(cc1OC)-c1n[nH]c(Nc3cccc(F)c3)c1C2 is above or exactly 50%.
True

Kindly determine if residual activity recorded for O=C(Nc1nc2ccccc2n1CCN1CCOCC1)c1cccc([N+](=O)[O-])c1 is above or exactly 50%.
True

Kindly determine if residual activity recorded for CC(C)(C)c1nc2c3ccc(F)cc3c3c(=O)[nH]ccc3c2[nH]1 is above or exactly 50%.
False

Kindly determine if residual activity recorded for NC(=O)c1ccc(-c2nc(-c3ccc4c(c3)OCCO4)c(-c3ccccn3)[nH]2)cc1 is above or exactly 50%.
True
